Where a name gives a salt, the structure may show the parent alone.
Values of melting point greater than or equal to 90 °C map to class 1; values below map to class 0.

QUERY: Does melting point meet or surpass 90 °C for CN1CCC(OC(c2nc3ccccc3[nH]2)c2ccc(Cl)cc2O)CC1 (centres unmarked) [Example 585] ?
RESULT: class 1

QUERY: Does melting point meet or surpass 90 °C for CN1CCC(OC(c2ccc(C(F)(F)F)cc2)c2nc3ccccc3[nH]2)CC1 (centres unmarked) [Example 537] ?
RESULT: class 0

QUERY: Does melting point meet or surpass 90 °C for Cc1c(F)cc(C(OC2CCN(C)CC2)c2nc3ccccc3[nH]2)c(O)c1F (centres unmarked) [Example 624] ?
RESULT: class 1

QUERY: Does melting point meet or surpass 90 °C for CN1CCC(OC(c2cccc(C#CCCCCNC(=N)N)c2)c2nc3ccccc3s2)CC1 (centres unmarked) (as salt: hydrochloride) [Example 342] ?
RESULT: class 1

QUERY: Does melting point meet or surpass 90 °C for CCCCOc1cccc(C(OC2CCN(C)CC2)c2nc3ccccc3s2)c1 (centres unmarked) (as salt: oxalate) [Example 92] ?
RESULT: class 1

QUERY: Does melting point meet or surpass 90 °C for CN1CCC(OC(c2nc3c(F)c(F)c(F)cc3[nH]2)c2cc(OC(F)(F)F)ccc2F)CC1 (centres unmarked) [Example 510] ?
RESULT: class 0

QUERY: Does melting point meet or surpass 90 °C for CN1CCC(OC(c2cccc(C#CCCCN)c2)c2nc3ccccc3[nH]2)CC1 (single isomer, unassigned) [Example 566] ?
RESULT: class 0

* * *

measurement-target: human H4 receptor (Homo sapiens, UniProt Q9H3N8)
Construct: expressed in transfected cells
Sequence (Q9H3N8 whole entry): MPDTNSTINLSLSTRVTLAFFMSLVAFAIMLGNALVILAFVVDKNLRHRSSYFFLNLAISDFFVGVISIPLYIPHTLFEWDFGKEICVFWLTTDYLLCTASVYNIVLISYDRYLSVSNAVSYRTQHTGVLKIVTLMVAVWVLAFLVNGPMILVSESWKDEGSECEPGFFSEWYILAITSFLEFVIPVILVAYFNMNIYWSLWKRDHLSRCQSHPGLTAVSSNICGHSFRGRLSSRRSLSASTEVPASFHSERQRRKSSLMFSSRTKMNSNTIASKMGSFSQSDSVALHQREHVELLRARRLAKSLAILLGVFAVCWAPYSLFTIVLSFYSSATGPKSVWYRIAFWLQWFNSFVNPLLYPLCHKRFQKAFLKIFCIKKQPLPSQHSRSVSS
experimental-protocol: [3H]Histamine binding on membranes of CHO cells stably expressing human H4 receptor
attribute-measured: Ki or IC50 activity class

QUERY: State its Ki or IC50 activity class: c1ccc2[nH]c(C(OC3CCNCC3)c3ccsc3)nc2c1 (stereo not drawn)
RESULT: < 1000 nM

QUERY: State its Ki or IC50 activity class: Cc1ccc(C(OC2CCN(C)CC2)c2nc3ccccc3[nH]2)cc1Cl (stereo not drawn)
RESULT: < 300 nM

QUERY: State its Ki or IC50 activity class: CN1CCC(OC(c2cccc(OCCCO)c2)c2nc3ccccc3s2)CC1 (stereo not drawn)
RESULT: < 300 nM

QUERY: State its Ki or IC50 activity class: COc1cccc(C(NC2CCN(C)CC2)c2nc3ccccc3s2)c1 (stereo not drawn)
RESULT: < 30 nM

QUERY: State its Ki or IC50 activity class: CN1CCC(NC(c2cccc(OCCCC3(C)OCCO3)c2)c2nc3ccccc3[nH]2)CC1 (stereo not drawn)
RESULT: < 300 nM

QUERY: State its Ki or IC50 activity class: CN1CCC(OC(c2cccc(OC3CCNCC3)c2)c2nc3ccccc3s2)CC1 (stereo not drawn)
RESULT: < 300 nM

QUERY: State its Ki or IC50 activity class: CN1CCC(OC(c2cccc(CCCCCN)c2)c2nc3ccccc3s2)CC1 (stereo not drawn)
RESULT: < 30 nM

QUERY: State its Ki or IC50 activity class: CN1CCC(NC(c2cccc(I)c2)c2nc3ccccc3s2)CC1 (stereo not drawn)
RESULT: < 300 nM

QUERY: State its Ki or IC50 activity class: CN1CCC(OC(c2cccc(SCCCCO)c2)c2nc3ccccc3s2)CC1 (stereo not drawn)
RESULT: < 30 nM

QUERY: State its Ki or IC50 activity class: CN1CCC(NC(c2cccc(OCc3cccc(F)c3)c2)c2nc3ccccc3[nH]2)CC1 (stereo not drawn)
RESULT: < 30 nM

QUERY: State its Ki or IC50 activity class: CN1CCC(OC(c2cccc(C#CC3CCNCC3)c2)c2nc3ccccc3[nH]2)CC1 (stereo not drawn)
RESULT: < 1000 nM

QUERY: State its Ki or IC50 activity class: CN1CC(COC(c2nc3ccccc3[nH]2)c2cc(OC(F)(F)F)ccc2F)C1 (stereo not drawn)
RESULT: < 300 nM

QUERY: State its Ki or IC50 activity class: CN1CCC(OC(c2nc3ccccc3[nH]2)c2ccc(F)cc2O)CC1 (stereo not drawn)
RESULT: < 30 nM

QUERY: State its Ki or IC50 activity class: COc1cccc(C(NC2CCN(C)CC2)c2nc3ccccc3[nH]2)c1 (stereo not drawn)
RESULT: < 300 nM

QUERY: State its Ki or IC50 activity class: CN1CCC(OC(c2nc3ccccc3[nH]2)c2cccc(OC(F)(F)F)c2O)CC1 (stereo not drawn)
RESULT: < 30 nM

QUERY: State its Ki or IC50 activity class: CN1CCC(NC(c2cccc(OCCCCN)c2)c2nc3ccccc3[nH]2)CC1 (stereo not drawn)
RESULT: < 300 nM

QUERY: State its Ki or IC50 activity class: CCn1c(C(OC2CCN(C)CC2)c2cccc(C#CCCCCN)c2)nc2ccccc21 (stereo not drawn)
RESULT: < 300 nM

QUERY: State its Ki or IC50 activity class: COc1cc(F)cc(C(OC2CCN(C)CC2)c2nc3ccccc3s2)c1 (stereo not drawn)
RESULT: < 30 nM

The reported numbers originate from patent US8802664B2.
